# target_system: EGFR (Homo sapiens, UniProt P00533)
# Sequence (P00533 25-1210): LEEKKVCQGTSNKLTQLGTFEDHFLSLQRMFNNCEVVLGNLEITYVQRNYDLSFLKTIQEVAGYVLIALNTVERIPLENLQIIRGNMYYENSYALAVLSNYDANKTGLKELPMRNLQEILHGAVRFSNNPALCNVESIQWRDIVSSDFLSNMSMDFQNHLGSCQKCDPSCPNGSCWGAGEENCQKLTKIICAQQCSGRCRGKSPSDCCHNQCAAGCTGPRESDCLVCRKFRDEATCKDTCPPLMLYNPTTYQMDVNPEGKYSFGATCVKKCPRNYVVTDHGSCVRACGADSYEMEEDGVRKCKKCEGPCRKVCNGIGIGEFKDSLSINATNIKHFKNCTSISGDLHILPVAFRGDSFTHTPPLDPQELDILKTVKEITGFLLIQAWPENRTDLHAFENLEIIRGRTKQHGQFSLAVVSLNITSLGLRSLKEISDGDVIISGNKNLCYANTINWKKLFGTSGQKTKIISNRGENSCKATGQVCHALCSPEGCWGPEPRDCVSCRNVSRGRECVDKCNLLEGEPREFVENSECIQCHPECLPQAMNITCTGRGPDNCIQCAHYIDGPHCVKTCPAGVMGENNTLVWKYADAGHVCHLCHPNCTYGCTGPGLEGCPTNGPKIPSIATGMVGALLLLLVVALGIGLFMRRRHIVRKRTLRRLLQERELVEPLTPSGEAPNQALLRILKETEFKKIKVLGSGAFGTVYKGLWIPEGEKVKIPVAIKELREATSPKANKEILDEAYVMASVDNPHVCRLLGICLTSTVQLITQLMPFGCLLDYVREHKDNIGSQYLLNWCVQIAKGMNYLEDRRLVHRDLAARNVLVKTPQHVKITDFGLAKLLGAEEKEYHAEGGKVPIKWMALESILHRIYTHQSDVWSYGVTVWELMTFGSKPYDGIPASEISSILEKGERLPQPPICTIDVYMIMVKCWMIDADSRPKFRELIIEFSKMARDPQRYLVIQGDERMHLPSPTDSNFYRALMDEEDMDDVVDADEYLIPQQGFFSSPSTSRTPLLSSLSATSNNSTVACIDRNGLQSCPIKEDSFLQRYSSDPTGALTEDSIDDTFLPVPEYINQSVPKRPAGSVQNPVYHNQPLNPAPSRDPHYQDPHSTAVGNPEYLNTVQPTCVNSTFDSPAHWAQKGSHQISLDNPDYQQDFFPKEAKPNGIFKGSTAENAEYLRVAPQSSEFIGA
reported_endpoint: pIC50
One number for each entry, as −log10 of the molar value.

QUERY: Query (compound): C=C(Br)C(=O)N1CCCC(n2nc(-c3ccc(Oc4ccccc4)cn3)c3c(N)ncnc32)C1 (stereo not shown) ; field requested: pIC50
RESULT: 7.21

###

# target_system: mTOR (Homo sapiens, UniProt P42345)
pIC50: −log10 of the molar value.
reported_endpoint: pIC50

QUERY: Provide value of pIC50 for this record tested with mTOR (Homo sapiens, UniProt P42345): C=CC(=O)N1CCC[C@@H](n2nc(-c3ccc(Oc4ccccc4)cc3)c3c(N)ncnc32)C1 [ibrutinib, Ibrutinib, reference compound]
RESULT: < 6.00

###

# assay_overview: Pharmacokinetics in SD rat
# Format: in vivo
# setup_conditions: po, intragastric 30 mg/kg
reported_endpoint: Cmax (ng/mL)
Numbers only, in ng/mL.

QUERY: Given the compound C=C(Br)C(=O)N1CCCC(n2nc(-c3ccc(Oc4ccccc4)cn3)c3c(N)ncnc32)C1 (stereo not shown) [Ibr‐7] , what is its reported Cmax?
RESULT: 304

###

# System: H1975 cells
# assay_overview: CCK-8 cell viability assay, H1975
# Type: cell-based
# setup_conditions: Homo sapiens, NCI-H1975; CCK-8, 48 h, EGFR L858R/T790M
pIC50: −log10 of the molar value.
Would you kindly list pIC50 for each of these molecules?

molecule	reported
CC1(C)CCC(CN2CCN(c3ccc(C(=O)NS(=O)(=O)c4ccc(NCC5CCOCC5)c([N+](=O)[O-])c4)c(Oc4cnc5[nH]ccc5c4)c3)CC2)=C(c2ccc(Cl)cc2)C1	< 5.00

# evaluate next
QUERY: Endpoint output: pIC50 of C=C(Br)C(=O)N1CCCC(n2nc(-c3ccc(Oc4ccccc4)cn3)c3c(N)ncnc32)C1 (centres unmarked) . Value?
RESULT: 5.40 to 6.00
